Target: Alkaline phosphatase, placental type (Homo sapiens, UniProt P05187)
Sequence (P05187 whole entry, looked up): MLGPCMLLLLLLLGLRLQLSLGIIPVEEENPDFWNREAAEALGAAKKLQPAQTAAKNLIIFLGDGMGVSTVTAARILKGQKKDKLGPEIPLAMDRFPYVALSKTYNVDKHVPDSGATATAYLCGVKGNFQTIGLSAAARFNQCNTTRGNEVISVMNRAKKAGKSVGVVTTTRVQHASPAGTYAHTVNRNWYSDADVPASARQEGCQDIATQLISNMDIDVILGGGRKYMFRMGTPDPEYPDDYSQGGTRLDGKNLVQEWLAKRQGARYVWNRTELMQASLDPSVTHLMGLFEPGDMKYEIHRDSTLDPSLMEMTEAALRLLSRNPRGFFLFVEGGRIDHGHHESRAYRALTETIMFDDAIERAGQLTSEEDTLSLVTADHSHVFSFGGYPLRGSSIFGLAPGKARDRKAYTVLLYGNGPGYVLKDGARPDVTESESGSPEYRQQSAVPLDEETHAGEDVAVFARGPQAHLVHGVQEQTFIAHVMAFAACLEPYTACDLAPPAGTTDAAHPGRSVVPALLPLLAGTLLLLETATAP
Test: PLAP enzyme inhibitors, dose response, selectivity assay for mouse IAP inhibitor project, biochemical, uHTS hits (AID 488879)
pIC50: −log10 of the molar value.
Below is a list of entries, each paired with its recorded pIC50 value.

{"molecule": "O=C(Nn1c(O)csc1=S)C(=O)Nn1c(O)csc1=S [SMR000349781]", "pIC50": "< 4.00"}

Inquiry: I'd like to know its pIC50. The molecule in question is COc1cc(C=CC(=O)CC(=O)C=Cc2ccc(O)cc2)ccc1O [demethoxycurcumin]
Reply text: < 4.00

Inquiry: I'd like to know its pIC50. The molecule in question is Cc1ccc(/C=C2\SC(=S)N(/N=C/C3C=C([N+](=O)[O-])C=CC3=O)C2=O)o1 (stereo not given)
Reply text: < 4.00

Inquiry: I'd like to know its pIC50. The molecule in question is NS(=O)(=O)c1ccc(N=Nc2c(=O)[nH]n3c(=O)c4c([nH]c23)CCCC4)cc1 [SMR000231775]
Reply text: 4.66

Inquiry: I'd like to know its pIC50. The molecule in question is COc1cc(C=Nn2c(O)csc2=S)ccc1O
Reply text: < 4.00
